- Tested on: CASOB Sicklepod
- method: Postemergence herbicidal evaluation, CASOB
- Type: in vivo, Cassia obtusifolia, L.
- Set-up: scale not given here
- conditionsUsed: 0.032 kg/ha, postemergence spray, rated about two-three weeks after treatment
# reported Postemergence herbicidal rating CASOB; entries follow
Please give only the number in your answer, with no unit.

Challenge: # returns recorded Postemergence herbicidal rating CASOB (system: CASOB Sicklepod) for COC(=O)COc1ccccc1-n1nnc2cc(F)c(-n3c(=O)cc(C(F)(F)F)n(C)c3=O)cc21 [Example 35]
Response given: 2.0

Challenge: Can you look up Postemergence herbicidal rating CASOB on CASOB Sicklepod for COc1ccc(Cl)cc1-n1nnc2cc(F)c(-n3c(=O)cc(C(F)(F)F)n(C)c3=O)cc21 [Example 30] ?
Response given: 7.0

Challenge: Lab request: please report Postemergence herbicidal rating CASOB under test system CASOB Sicklepod for C#CCOC(=O)COc1ccc(C)cc1-n1nnc2cc(F)c(-n3c(=O)cc(C(F)(F)F)n(C)c3=O)cc21 [Example 40]
Response given: 3.0

====

Parameter Postemergence herbicidal rating ECHCG: see the listing below.
- System: ECHOG Barnyardgrass
- method: Postemergence herbicidal evaluation, ECHOG
- Format: in vivo, Echinochloa crus-galli, (L.) Beau
- Parameters: scale not given here
- conditionsUsed: 0.016 kg/ha, postemergence spray, rated about two-three weeks after treatment
// print number alone

Worked examples follow.
Cc1ccccc1-n1nnc2cc(F)c(-n3c(=O)cc(C(F)(F)F)n(C)c3=O)cc21; 0.0
COc1ccc(Cl)cc1-n1nnc2cc(F)c(-n3c(=O)cc(C(F)(F)F)n(C)c3=O)cc21; 4.0
Cc1ccc(-n2nnc3cc(F)c(-n4c(=O)cc(C(F)(F)F)n(C)c4=O)cc32)cc1C; 0.0

Consider the additional molecule presented here.
Challenge: I am curious: what Postemergence herbicidal rating ECHCG value has been reported for COC(=O)COc1ccc(C)cc1-n1nnc2cc(F)c(-n3c(=O)cc(C(F)(F)F)n(C)c3=O)cc21 ?
Response given: 9.0

====

As shown below, each of these compounds has a reported Postemergence herbicidal rating ECHCG value.
- System: ECHOG Barnyardgrass
- method: Postemergence herbicidal evaluation, ECHOG
- Type: in vivo, Echinochloa crus-galli, (L.) Beau
- Set-up: scale not given here
- conditionsUsed: 0.016 kg/ha, postemergence spray, rated about two-three weeks after treatment
Respond using a number only.

Examples with answers:
CCc1ccc(-n2nnc3cc(F)c(-n4c(=O)cc(C(F)(F)F)n(C)c4=O)cc32)cc1COC; 0.0
COc1ccc(-n2nnc3cc(F)c(-n4c(=O)cc(C(F)(F)F)n(C)c4=O)cc32)c(C)c1; 0.0
CCc1cccc(-n2nnc3cc(F)c(-n4c(=O)cc(C(F)(F)F)n(C)c4=O)cc32)c1; 1.0

With those in mind, consider the next compound.
Challenge: Quick check: Postemergence herbicidal rating ECHCG on ECHOG Barnyardgrass, item Cc1cc(O)ccc1-n1nnc2cc(F)c(-n3c(=O)cc(C(F)(F)F)n(C)c3=O)cc21 ?
Response given: 0.0

====

- Test system: GALAP Galium
- method: Preemergence herbicidal evaluation, GALAP
- Assay type: in vivo, Galium aparine
- Set-up: scale not given here
- conditionsUsed: preemergence, rate 0.062 kg/ha
measuredParameter: GALAP herbicidal rating
Quick one: just the number, no unit, thanks!

Challenge: Requested field: GALAP herbicidal rating. Item: Cc1ccc(OCC(=O)O)cc1-n1nnc2cc(F)c(-n3c(=O)cc(C(F)(F)F)n(C)c3=O)cc21
Response given: 0.0

Challenge: Need GALAP herbicidal rating of Cc1ccc(O)cc1-n1nnc2cc(F)c(-n3c(=O)cc(C(F)(F)F)n(C)c3=O)cc21 , thanks.
Response given: 0.0

Challenge: For the compound COc1ccc(C)c(-n2nnc3cc(F)c(-n4c(=O)cc(C(F)(F)F)n(C)c4=O)cc32)c1 , what GALAP herbicidal rating is on record?
Response given: 0.0
